These measurements were taken from ChEMBL document CHEMBL5143685.

Below, each of the compounds is paired with its reported MIC value.
# Test system: Klebsiella pneumoniae
# Experiment description: Antibacterial activity against Klebsiella pneumoniae ATCC 700603 assessed as inhibition of bacterial growth measured after 18 hrs by resazurin dye based analysis
# Type: functional

Smi: COC(=O)[C@@]1(C)CCC[C@]2(C)c3cc(OC(=O)CCCNCCCCCCCCCCNCCCNC(=O)Oc4ccc5c(c4)[C@@]4(C)CCC[C@](C)(C(=O)OC)[C@@H]4CC5)ccc3CC[C@@H]12.O=C(O)C(F)(F)F.O=C(O)C(F)(F)F
MIC: > 28 µM
--
Smi: CCCCCNC(=O)[C@@]1(C)CCC[C@]2(C)c3cc(OC(=O)CCCNCCCCCCCCNCCCNC(=O)Oc4ccc5c(c4)[C@@]4(C)CCC[C@](C)(C(=O)NCCCCC)[C@@H]4CC5)ccc3CC[C@@H]12.O=C(O)C(F)(F)F.O=C(O)C(F)(F)F
MIC: > 26.1 µM
--
Smi: CCCCCNC(=O)[C@@]1(C)CCC[C@]2(C)c3cc(OC(=O)CCCNCCCCCCCCCCNCCCNC(=O)Oc4ccc5c(c4)[C@@]4(C)CCC[C@](C)(C(=O)NCCCCC)[C@@H]4CC5)ccc3CC[C@@H]12.O=C(O)C(F)(F)F.O=C(O)C(F)(F)F
MIC: > 25.5 µM

* * *

The following compounds are listed with their measured MIC values.
# Test system: Pseudomonas aeruginosa
# Experiment description: Antibacterial activity against Pseudomonas aeruginosa ATCC 27853 assessed as inhibition of bacterial growth measured after 18 hrs by resazurin dye based analysis
# Type: functional
Endpoint name: MIC

Smi: C[C@]1(C(=O)O)CCC[C@]2(C)c3cc(OC(=O)NCCCNCCCCCCN)ccc3CC[C@@H]12.O=C(O)C(F)(F)F.O=C(O)C(F)(F)F
Endpoint name: MIC
Test value: > 45.6 µM
//
Smi: C[C@]1(C(=O)NCCCNCCCCCCCCCCN)CCC[C@]2(C)c3cc(O)ccc3CC[C@@H]12.O=C(O)C(F)(F)F.O=C(O)C(F)(F)F
Endpoint name: MIC
Test value: > 44.8 µM
//
Smi: C[C@]1(C(=O)O)CCC[C@]2(C)c3cc(OC(=O)NCCCNCCCCCCCN)ccc3CC[C@@H]12.O=C(O)C(F)(F)F.O=C(O)C(F)(F)F
Endpoint name: MIC
Test value: > 44.7 µM

* * *

# System: Cryptococcus neoformans
# Experiment description: Antifungal activity against Cryptococcus neoformans ATCC 208821 assessed as fungal growth inhibition incubated for 36 hrs by resazurin dye based analysis
# Format: functional
MIC by entry:
Endpoint name: MIC (µM)

Smi: C[C@]1(C(=O)NCCCNCCCCCCCCNCCCNC(=O)[C@@]2(C)CCC[C@]3(C)c4cc(O)ccc4CC[C@@H]23)CCC[C@]2(C)c3cc(O)ccc3CC[C@@H]12.O=C(O)C(F)(F)F.O=C(O)C(F)(F)F
Endpoint name: MIC
Units of measure: µM
Comparison symbol: =
Test value: 32

Smi: COC(=O)[C@@]1(C)CCC[C@]2(C)c3cc(OC(=O)CCCNCCCCCCCNCCCNC(=O)Oc4ccc5c(c4)[C@@]4(C)CCC[C@](C)(C(=O)OC)[C@@H]4CC5)ccc3CC[C@@H]12.O=C(O)C(F)(F)F.O=C(O)C(F)(F)F
Endpoint name: MIC
Units of measure: µM
Comparison symbol: =
Test value: 7.26

Smi: C[C@]1(C(=O)O)CCC[C@]2(C)c3cc(OC(=O)CCCNCCCCCCCCCCNCCCNC(=O)Oc4ccc5c(c4)[C@@]4(C)CCC[C@](C)(C(=O)O)[C@@H]4CC5)ccc3CC[C@@H]12.O=C(O)C(F)(F)F.O=C(O)C(F)(F)F
Endpoint name: MIC
Units of measure: µM
Comparison symbol: =
Test value: 7.17

Smi: C[C@]1(C(=O)NCCCNCCCCN)CCC[C@]2(C)c3cc(O)ccc3CC[C@@H]12
Endpoint name: MIC
Units of measure: µM
Comparison symbol: >
Test value: 50.8

Smi: C[C@]1(C(=O)O)CCC[C@]2(C)c3cc(OC(=O)CCCNCCCCCCCCCCCCNCCCNC(=O)Oc4ccc5c(c4)[C@@]4(C)CCC[C@](C)(C(=O)O)[C@@H]4CC5)ccc3CC[C@@H]12.O=C(O)C(F)(F)F.O=C(O)C(F)(F)F
Endpoint name: MIC
Units of measure: µM
Comparison symbol: =
Test value: 3.5

Smi: C[C@]1(C(=O)NCCCNCCCCCCCCN)CCC[C@]2(C)c3cc(OC(=O)NCCCNCCCCCCCCN)ccc3CC[C@@H]12.O=C(O)C(F)(F)F.O=C(O)C(F)(F)F.O=C(O)C(F)(F)F.O=C(O)C(F)(F)F
Endpoint name: MIC
Units of measure: µM
Comparison symbol: >
Test value: 28

Smi: C[C@]1(C(=O)O)CCC[C@]2(C)c3cc(O)ccc3CC[C@@H]12
Endpoint name: MIC
Units of measure: µM
Comparison symbol: >
Test value: 117

Smi: C[C@]1(C(=O)NCCCNCCCCCCCCCCCCN)CCC[C@]2(C)c3cc(O)ccc3CC[C@@H]12.O=C(O)C(F)(F)F.O=C(O)C(F)(F)F
Endpoint name: MIC
Units of measure: µM
Comparison symbol: =
Test value: 43.1

* * *

# System: Cryptococcus neoformans
# Experiment description: Antifungal activity against Cryptococcus neoformans ATCC 208821 assessed as fungal growth inhibition incubated for 36 hrs by resazurin dye based analysis
# Assay type: functional
Reported MIC by item:

Smi: C[C@]1(C(=O)NCCCNCCCCCCCCCCN)CCC[C@]2(C)c3cc(O)ccc3CC[C@@H]12.O=C(O)C(F)(F)F.O=C(O)C(F)(F)F
MIC: > 44.8 µM
--
Smi: C[C@]1(C(=O)NCCCNCCCCCCCCN)CCC[C@]2(C)c3cc(O)ccc3CC[C@@H]12.O=C(O)C(F)(F)F.O=C(O)C(F)(F)F
MIC: > 46.7 µM
--
Smi: C[C@]1(C(=O)O)CCC[C@]2(C)c3cc(OC(=O)NCCCNCCCCCCCCCCCCN)ccc3CC[C@@H]12.O=C(O)C(F)(F)F.O=C(O)C(F)(F)F
MIC: > 32.8 µM
--
Smi: C[C@]1(C(=O)NCCCNCCCCCCCN)CCC[C@]2(C)c3cc(OC(=O)NCCCNCCCCCCCN)ccc3CC[C@@H]12.O=C(O)C(F)(F)F.O=C(O)C(F)(F)F.O=C(O)C(F)(F)F.O=C(O)C(F)(F)F
MIC: > 29.7 µM
--
Smi: C[C@]1(C(=O)NCCCNCCCCCCCNCCCNC(=O)[C@@]2(C)CCC[C@]3(C)c4cc(O)ccc4CC[C@@H]23)CCC[C@]2(C)c3cc(O)ccc3CC[C@@H]12.O=C(O)C(F)(F)F.O=C(O)C(F)(F)F
MIC: 32.5 µM
--
Smi: C[C@]1(C(=O)NCCCNCCCCCCNCCCNC(=O)[C@@]2(C)CCC[C@]3(C)c4cc(O)ccc4CC[C@@H]23)CCC[C@]2(C)c3cc(O)ccc3CC[C@@H]12.O=C(O)C(F)(F)F.O=C(O)C(F)(F)F
MIC: 32.9 µM
--
Smi: C[C@]1(C(=O)NCCCNCCCCCCN)CCC[C@]2(C)c3cc(OC(=O)NCCCNCCCCCCN)ccc3CC[C@@H]12.O=C(O)C(F)(F)F.O=C(O)C(F)(F)F.O=C(O)C(F)(F)F.O=C(O)C(F)(F)F
MIC: > 29.5 µM
--
Smi: COC(=O)[C@@]1(C)CCC[C@]2(C)c3cc(OC(=O)CCCNCCCCCCCCCCNCCCNC(=O)Oc4ccc5c(c4)[C@@]4(C)CCC[C@](C)(C(=O)OC)[C@@H]4CC5)ccc3CC[C@@H]12.O=C(O)C(F)(F)F.O=C(O)C(F)(F)F
MIC: ≤ 0.22 µM
--
Smi: C[C@]1(C(=O)NCCCNCCCCN)CCC[C@]2(C)c3cc(OC(=O)NCCCNCCCCN)ccc3CC[C@@H]12.O=C(O)C(F)(F)F.O=C(O)C(F)(F)F.O=C(O)C(F)(F)F.O=C(O)C(F)(F)F
MIC: > 31.1 µM
--
Smi: C[C@]1(C(=O)O)CCC[C@]2(C)c3cc(OC(=O)NCCCNCCCCCCCCCCN)ccc3CC[C@@H]12
MIC: > 42.2 µM
--
Smi: C[C@]1(C(=O)O)CCC[C@]2(C)c3cc(OC(=O)CCCNCCCCCCCCNCCCNC(=O)Oc4ccc5c(c4)[C@@]4(C)CCC[C@](C)(C(=O)O)[C@@H]4CC5)ccc3CC[C@@H]12.O=C(O)C(F)(F)F.O=C(O)C(F)(F)F
MIC: ≤ 0.23 µM

* * *

# reported IC50 at 20 h; entries follow
# Experiment description: Cytotoxicity against HEK293 cells assessed as cell growth inhibition measured after 20 hrs by resazurin dye based assay
# Assay type: toxicity
# Condition details: human
Endpoint name: IC50 at 20 h (µM)

Smi: COC(=O)[C@@]1(C)CCC[C@]2(C)c3cc(OC(=O)CCCNCCCCNCCCNC(=O)Oc4ccc5c(c4)[C@@]4(C)CCC[C@](C)(C(=O)OC)[C@@H]4CC5)ccc3CC[C@@H]12.O=C(O)C(F)(F)F.O=C(O)C(F)(F)F
Comparison symbol: =
Test value: 16.4
--
Smi: C[C@]1(C(=O)NCCCNCCCCCCCCNCCCNC(=O)[C@@]2(C)CCC[C@]3(C)c4cc(O)ccc4CC[C@@H]23)CCC[C@]2(C)c3cc(O)ccc3CC[C@@H]12.O=C(O)C(F)(F)F.O=C(O)C(F)(F)F
Comparison symbol: =
Test value: 18.1
--
Smi: C[C@]1(C(=O)O)CCC[C@]2(C)c3cc(OC(=O)NCCCNCCCCCCCCN)ccc3CC[C@@H]12.O=C(O)C(F)(F)F.O=C(O)C(F)(F)F
Comparison symbol: >
Test value: 43.8
--
Smi: COC(=O)[C@@]1(C)CCC[C@]2(C)c3cc(OC(=O)CCCNCCCCCCCCCCNCCCNC(=O)Oc4ccc5c(c4)[C@@]4(C)CCC[C@](C)(C(=O)OC)[C@@H]4CC5)ccc3CC[C@@H]12.O=C(O)C(F)(F)F.O=C(O)C(F)(F)F
Comparison symbol: =
Test value: 1.3
--
Smi: C[C@]1(C(=O)O)CCC[C@]2(C)c3cc(OC(=O)NCCCNCCCCCCN)ccc3CC[C@@H]12.O=C(O)C(F)(F)F.O=C(O)C(F)(F)F
Comparison symbol: >
Test value: 45.6
